Entries annotated with measured inhibition zone (IZ)
test system: Aspergillus niger; test: Antifungal activity against Aspergillus niger after 24 to 48 hrs by agar well diffusion method; assay type: functional

Solved cases below.
inhibition zone (IZ) recorded for this compound, O=C(NC(=S)Nc1c(Cl)cc(Cl)cc1Cl)c1ccccc1 , is 3 mm

get_value(item= O=C(NC(=S)Nc1cccc(F)c1)c1ccccc1 , readout=inhibition zone (IZ)) returns 1 mm

Short answer for O=C(NC(=S)Nc1cccc(Cl)c1Cl)c1ccccc1 : inhibition zone (IZ) was <1 mm

The compound identified as O=C(NC(=S)NCc1ccccc1Cl)c1ccccc1 registered its inhibition zone (IZ) at <1 mm

New cases:
Query O=C(NC(=S)Nc1cccc(Cl)c1)c1ccccc1 yields inhibition zone (IZ) of <1 mm

Measured inhibition zone (IZ) of O=C(NC(=S)NC1CCCCC1)c1ccccc1 : <1 mm

O=C(NC(=S)Nc1c(Cl)c(Cl)cc(Cl)c1Cl)c1ccccc1 yielded inhibition zone (IZ) of 3 mm

inhibition zone (IZ) in this record for Cc1cccc(NC(=S)NC(=O)c2ccccc2)c1C : <1 mm

Notebook: O=C(NC(=S)Nc1cccc(C(F)(F)F)c1)c1ccccc1 , inhibition zone (IZ) read as 3 mm

Given item O=C(NC(=S)Nc1ccc(C(F)(F)F)cc1)c1ccccc1 , the value recorded as its inhibition zone (IZ) is 3 mm

Quick note, inhibition zone (IZ) for O=C(NC(=S)Nc1c(Cl)cccc1Cl)c1ccccc1 landed at 1 mm
